Ref: patent US20210395344A1

TESTED_SYSTEM: T1, Acro COVID S1 (S1N-C82E8) (SARS-CoV-2, UniProt P0DTC2 16-685)
T1 construct: domain: S1 (subunit 1)
TEST_PROTOCOL: phage ELISA
MEASURE: specificity ELISA, fold over background
Could you give the number and then its unit, please?

INPUT: # return recorded specificity ELISA, fold over background for entry SARS-CoV-2 variant 1-24 (antibody, V domains shown) VH: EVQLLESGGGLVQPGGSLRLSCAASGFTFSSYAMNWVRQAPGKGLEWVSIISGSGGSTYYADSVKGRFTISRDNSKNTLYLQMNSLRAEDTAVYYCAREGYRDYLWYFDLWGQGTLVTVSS VL: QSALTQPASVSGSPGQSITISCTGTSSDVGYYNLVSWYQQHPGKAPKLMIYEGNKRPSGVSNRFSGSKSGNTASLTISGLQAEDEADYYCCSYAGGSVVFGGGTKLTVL
OUTPUT: 12.9 fold over background

INPUT: # return recorded specificity ELISA, fold over background for entry SARS-CoV-2 variant 1-29 (antibody, V domains shown) VH: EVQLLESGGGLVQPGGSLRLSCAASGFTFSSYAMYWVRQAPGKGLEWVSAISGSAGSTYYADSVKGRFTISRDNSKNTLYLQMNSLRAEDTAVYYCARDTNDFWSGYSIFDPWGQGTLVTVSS VL: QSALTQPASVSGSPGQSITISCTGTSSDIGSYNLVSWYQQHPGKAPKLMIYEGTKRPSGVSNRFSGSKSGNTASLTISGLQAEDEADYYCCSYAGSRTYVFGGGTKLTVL
OUTPUT: 1.1 fold over background

New cases:
INPUT: # return recorded specificity ELISA, fold over background for entry SARS-CoV-2 variant 1-47 (antibody, V domains shown) VH: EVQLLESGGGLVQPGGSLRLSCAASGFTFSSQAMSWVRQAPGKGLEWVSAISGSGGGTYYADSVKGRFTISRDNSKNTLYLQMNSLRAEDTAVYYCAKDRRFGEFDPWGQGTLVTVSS VL: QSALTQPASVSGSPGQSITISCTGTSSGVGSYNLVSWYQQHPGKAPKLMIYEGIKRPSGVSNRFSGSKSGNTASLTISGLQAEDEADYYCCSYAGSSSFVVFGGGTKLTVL
OUTPUT: 8.1 fold over background
